target: amyloid-β1–42 (Aβ1–42) (Homo sapiens, UniProt P05067)
Sequence (P05067 672-713): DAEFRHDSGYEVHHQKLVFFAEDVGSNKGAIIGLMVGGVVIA
attributeMeasured: pKd
pKd (log units): -log10 of the concentration in mol/L.

# value of pKd, amyloid-β1–42 (Aβ1–42) (Homo sapiens, UniProt P05067), item O=C(O[C@@H]1Cc2c(O)cc(O)cc2O[C@@H]1c1cc(O)c(O)c(O)c1)c1cc(O)c(O)c(O)c1 = 4.03
